# System: T-47D spheroids with HUVEC/MSC, viability
# PROTOCOL DETAILS: Anticancer human tumor T-47D cell line growth inhibition [PI3K];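 note: spheroids exposed to agents for seven days before reading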
# CONDITION SUMMARY: curve of first compound; second compound 0.0316 µM
# Excerpt: Combinatorial screen of targeted agents with the PI3K inhibitors inavolisib, alpelisib, duvelisib, and copanlisib in multi-cell type tumor spheroids A high-throughput screen of multi-cell type tumor spheroids was designed to identify active combinations of targeted small molecules and PI3K pathway inhibitors. […] Compounds. […] If the clinical Cmax for an agent had not been determined, the highest concentration tested was 10 microM. […]
pIC50: −log10 of the molar value.
RESULT TYPE: pIC50

Examples with their reported pIC50 follow.
MOLECULE	MEASURED ON	RESULT
CC(C)n1nc(-c2ccc3oc(N)nc3c2)c2c(N)ncnc21 + CC(Nc1ccc2c(c1)OCCn1cc(N3C(=O)OCC3C(F)F)nc1-2)C(N)=O	T-47D spheroids with HUVEC/MSC, viability	7.29
CC(=O)c1c(C)c2cnc(Nc3ccc(N4CCNCC4)cn3)nc2n(C2CCCC2)c1=O + CC(Nc1ccc2c(c1)OCCn1cc(N3C(=O)OCC3C(F)F)nc1-2)C(N)=O	T-47D spheroids with HUVEC/MSC, viability	< 7.00
Cn1ncc(Cl)c1-c1cc(C(=O)NC(CN)Cc2cccc(F)c2)sc1Cl (stereo unspecified) + CC(Nc1ccc2c(c1)OCCn1cc(N3C(=O)OCC3C(F)F)nc1-2)C(N)=O	T-47D spheroids with HUVEC/MSC, viability	< 5.00

Report pIC50, nothing else, for this molecule: CC(Cn1ccc(-c2ccc(C#N)c(Cl)c2)n1)NC(=O)c1cc(C(C)O)[nH]n1 (stereo unspecified) + COc1c(OCCCN2CCOCC2)ccc2c3n(c(=NC(=O)c4cnc(N)nc4)nc12)CCN3 5.07

Report pIC50, nothing else, for this molecule: CNC(=O)c1ccc(N2C(=S)N(c3ccc(C#N)c(C(F)(F)F)c3)C(=O)C2(C)C)cc1F + CC(Nc1ccc2c(c1)OCCn1cc(N3C(=O)OCC3C(F)F)nc1-2)C(N)=O < 5.00

Report pIC50, nothing else, for this molecule: CC(Cn1ccc(-c2ccc(C#N)c(Cl)c2)n1)NC(=O)c1cc(C(C)O)[nH]n1 (stereo unspecified) + Cc1nc(NC(=O)N2CCCC2C(N)=O)sc1-c1ccnc(C(C)(C)C(F)(F)F)c1 < 5.00

###

# Test system: T-47D spheroids with HUVEC/MSC, viability
# PROTOCOL DETAILS: Anticancer human tumor T-47D cell line growth inhibition [PI3K];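 note: spheroids exposed to agents for seven days before reading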;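 for viability, T/C: percent of DMSO vehicle control luminescence so 100% = untreated growth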
# CONDITION SUMMARY: compound 0.316 µM; stronger effect = lower value
RESULT TYPE: viability, T/C

Examples with their reported viability, T/C follow.
MOLECULE	viability, T/C
CC(Cn1ccc(-c2ccc(C#N)c(Cl)c2)n1)NC(=O)c1cc(C(C)O)[nH]n1 (stereo not given)	92.3% [middle of 4 runs]
COc1c(OCCCN2CCOCC2)ccc2c3n(c(=NC(=O)c4cnc(N)nc4)nc12)CCN3	20.5% [middle of 8 runs]

Report viability, T/C, nothing else, for this molecule: CC(Nc1ccc2c(c1)OCCn1cc(N3C(=O)OCC3C(F)F)nc1-2)C(N)=O (stereo not given) 79.9% [middle of 8 runs]

Report viability, T/C, nothing else, for this molecule: CC(C)NCC(C(=O)N1CCN(c2ncnc3c2C(C)CC3O)CC1)c1ccc(Cl)cc1 (stereo not given) 84.9% [middle of 4 runs]

Report viability, T/C, nothing else, for this molecule: Cn1nccc1Nc1nccc(-c2ccn(C(CO)c3ccc(Cl)c(F)c3)c(=O)c2)n1 (stereo not given) 105% [middle of 4 runs]

###

# System: T-47D spheroids with HUVEC/MSC, viability
# PROTOCOL DETAILS: Anticancer human tumor T-47D cell line growth inhibition [PI3K];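 note: spheroids exposed to agents for seven days before reading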;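 for viability, T/C: percent of DMSO vehicle control luminescence so 100% = untreated growth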
# CONDITION SUMMARY: second compound 3.16 µM; first compound 1 µM; stronger effect = lower value
// boundary case: viability, T/C equal to 50% maps to no (0); strictly smaller maps to yes (1)

MOLECULE	ASSIGNED LABEL
CC(Cn1ccc(-c2ccc(C#N)c(Cl)c2)n1)NC(=O)c1cc(C(C)O)[nH]n1 (stereo not given) + CC(Nc1ncnc2nc[nH]c12)c1cc2cccc(Cl)c2c(=O)n1-c1ccccc1	no (0)
CNC(=O)c1ccc(N2C(=S)N(c3ccc(C#N)c(C(F)(F)F)c3)C(=O)C2(C)C)cc1F + CC(Nc1ncnc2nc[nH]c12)c1cc2cccc(Cl)c2c(=O)n1-c1ccccc1	no (0)
CC1(C)CCC(Nc2ncc(C(F)(F)F)c(-c3c[nH]c4c(P(C)(C)=O)c(C#N)ccc34)n2)CN1 (stereo not given) + Cc1nc(NC(=O)N2CCCC2C(N)=O)sc1-c1ccnc(C(C)(C)C(F)(F)F)c1	yes (1)

Please examine the following record next.
I'd appreciate it if you could check whether CCN1CCN(Cc2ccc(Nc3ncc(F)c(-c4cc(F)c5nc(C)n(C(C)C)c5c4)n3)nc2)CC1 + Cc1nc(NC(=O)N2CCCC2C(N)=O)sc1-c1ccnc(C(C)(C)C(F)(F)F)c1 has viability, T/C smaller than 50%. no (0)

###

# Test system: T-47D spheroids with HUVEC/MSC, viability
# PROTOCOL DETAILS: Anticancer human tumor T-47D cell line growth inhibition [PI3K];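 note: spheroids exposed to agents for seven days before reading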;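 for viability, T/C: percent of DMSO vehicle control luminescence so 100% = untreated growth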
# CONDITION SUMMARY: second compound 0.1 µM; first compound 1 µM; stronger effect = lower value
// boundary case: viability, T/C equal to 80% maps to Condition not met; strictly smaller maps to Condition met

MOLECULE	ASSIGNED LABEL
C#Cc1c(F)ccc2cc(O)cc(-c3ncc4c(N5CC6CCC(C5)N6)nc(OCC56CCCN5CC(F)C6)nc4c3F)c12 (stereo unspecified) + CC(Nc1ncnc2nc[nH]c12)c1cc2cccc(Cl)c2c(=O)n1-c1ccccc1	Condition not met
C#Cc1c(F)ccc2cc(O)cc(-c3ncc4c(N5CC6CCC(C5)N6)nc(OCC56CCCN5CC(F)C6)nc4c3F)c12 (stereo unspecified) + CC(Nc1ccc2c(c1)OCCn1cc(N3C(=O)OCC3C(F)F)nc1-2)C(N)=O	Condition not met
CNC(=O)c1ccc(N2C(=S)N(c3ccc(C#N)c(C(F)(F)F)c3)C(=O)C2(C)C)cc1F + COc1c(OCCCN2CCOCC2)ccc2c3n(c(=NC(=O)c4cnc(N)nc4)nc12)CCN3	Condition met
C=CC(=O)N1CCN(c2nc(=O)n(-c3c(C)ccnc3C(C)C)c3nc(-c4c(O)cccc4F)c(F)cc23)C(C)C1 (stereo unspecified) + CC(Nc1ccc2c(c1)OCCn1cc(N3C(=O)OCC3C(F)F)nc1-2)C(N)=O	Condition not met
CC1(C)CCC(CN2CCN(c3ccc(C(=O)NS(=O)(=O)c4ccc(NCC5CCOCC5)c([N+](=O)[O-])c4)c(Oc4cnc5[nH]ccc5c4)c3)CC2)=C(c2ccc(Cl)cc2)C1 + COc1c(OCCCN2CCOCC2)ccc2c3n(c(=NC(=O)c4cnc(N)nc4)nc12)CCN3	Condition met
C=CC(=O)N1CCN(c2nc(=O)n(-c3c(C)ccnc3C(C)C)c3nc(-c4c(O)cccc4F)c(F)cc23)C(C)C1 (stereo unspecified) + CC(Nc1ncnc2nc[nH]c12)c1cc2cccc(Cl)c2c(=O)n1-c1ccccc1	Condition not met
CC(Cn1ccc(-c2ccc(C#N)c(Cl)c2)n1)NC(=O)c1cc(C(C)O)[nH]n1 (stereo unspecified) + CC(Nc1ccc2c(c1)OCCn1cc(N3C(=O)OCC3C(F)F)nc1-2)C(N)=O	Condition met
CCCS(=O)(=O)Nc1ccc(F)c(C(=O)c2c[nH]c3ncc(-c4ccc(Cl)cc4)cc23)c1F + CC(Nc1ccc2c(c1)OCCn1cc(N3C(=O)OCC3C(F)F)nc1-2)C(N)=O	Condition not met
CC(C)NCC(C(=O)N1CCN(c2ncnc3c2C(C)CC3O)CC1)c1ccc(Cl)cc1 (stereo unspecified) + Cc1nc(NC(=O)N2CCCC2C(N)=O)sc1-c1ccnc(C(C)(C)C(F)(F)F)c1	Condition met

Please examine the following record next.
I'd appreciate it if you could check whether C[C@@H](NC(=O)c1ncnc(N)c1Cl)c1ncc(C(=O)Nc2cc(C(F)(F)F)c(Cl)cn2)s1 + CC(Nc1ncnc2nc[nH]c12)c1cc2cccc(Cl)c2c(=O)n1-c1ccccc1 has viability, T/C smaller than 80%. Condition not met

###

# System: T-47D spheroids with HUVEC/MSC, viability
# PROTOCOL DETAILS: Anticancer human tumor T-47D cell line growth inhibition [PI3K]; active means viability on the fitted dose curve at most 10% of control; inactive means the rest;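 note: spheroids exposed to agents for seven days before reading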
# CONDITION SUMMARY: second compound 1 µM; first compound 0.1 µM
Valid outcomes are listed here; reply with one: T (active), F (inactive)

These solved cases illustrate the format of a correct answer.
MOLECULE	MEASURED ON	ASSIGNED LABEL
CC(=O)c1c(C)c2cnc(Nc3ccc(N4CCNCC4)cn3)nc2n(C2CCCC2)c1=O + CC(Nc1ncnc2nc[nH]c12)c1cc2cccc(Cl)c2c(=O)n1-c1ccccc1	T-47D spheroids with HUVEC/MSC, viability	F
Cn1ncc(Cl)c1-c1cc(C(=O)NC(CN)Cc2cccc(F)c2)sc1Cl (stereo unspecified) + COc1c(OCCCN2CCOCC2)ccc2c3n(c(=NC(=O)c4cnc(N)nc4)nc12)CCN3	T-47D spheroids with HUVEC/MSC, viability	T
CC(C)n1nc(-c2ccc3oc(N)nc3c2)c2c(N)ncnc21 + CC(Nc1ccc2c(c1)OCCn1cc(N3C(=O)OCC3C(F)F)nc1-2)C(N)=O	T-47D spheroids with HUVEC/MSC, viability	T
C#Cc1c(F)ccc2cc(O)cc(-c3ncc4c(N5CC6CCC(C5)N6)nc(OCC56CCCN5CC(F)C6)nc4c3F)c12 (stereo unspecified) + COc1c(OCCCN2CCOCC2)ccc2c3n(c(=NC(=O)c4cnc(N)nc4)nc12)CCN3	T-47D spheroids with HUVEC/MSC, viability	T
Cn1ncnc1[C@H]1c2n[nH]c(=O)c3cc(F)cc(c23)N[C@@H]1c1ccc(F)cc1 + COc1c(OCCCN2CCOCC2)ccc2c3n(c(=NC(=O)c4cnc(N)nc4)nc12)CCN3	T-47D spheroids with HUVEC/MSC, viability	T

# lookup: test call for CC(Cn1ccc(-c2ccc(C#N)c(Cl)c2)n1)NC(=O)c1cc(C(C)O)[nH]n1 (stereo unspecified) + COc1c(OCCCN2CCOCC2)ccc2c3n(c(=NC(=O)c4cnc(N)nc4)nc12)CCN3 T
